test.details: Inhibition of rabbit skeletal muscle myosin 2 ATPase in presence of F-actin after 1 hr
Parameters: species or system Oryctolagus cuniculus
pIC50: −log10 of the molar value.
Reported values of pIC50 for individual entries

| compound | pIC50 |
| --- | --- |
| Cc1ccc2c(c1)C(=O)[C@]1(O)CCN(c3ccccc3)C1=N2 | 6.02 |
| Cc1ccc2c(c1)C(=O)[C@]1(O)C[C@H](CO)N(c3ccccc3)C1=N2 (racemic) | 4.12 |
